Source listed as ChEMBL document CHEMBL1135200.

IC50: recorded values
- Test system: Nucleic Acid
- EXPERIMENT: Ability to inhibit the formation of the U1A-stem loop 2 RNA complex using gel mobility shift assay
- Format: nucleic-acid assay
MEASURED_ENDPOINT: IC50 (mM)

> print(dat)
                              sample.smiles  unit.spec  reported.measurement
1                  Nc1nc(N)c2c(N)c(N)ccc2n1         mM                    10
2  COc1ccc2nc3cc(Cl)ccc3c(NCCCN(CCCN)CCCCN)c2c1         mM                 0.001
